- tgt: HCMV NO protease (Human cytomegalovirus, UniProt P16753)
- Sequence (P16753 1-256): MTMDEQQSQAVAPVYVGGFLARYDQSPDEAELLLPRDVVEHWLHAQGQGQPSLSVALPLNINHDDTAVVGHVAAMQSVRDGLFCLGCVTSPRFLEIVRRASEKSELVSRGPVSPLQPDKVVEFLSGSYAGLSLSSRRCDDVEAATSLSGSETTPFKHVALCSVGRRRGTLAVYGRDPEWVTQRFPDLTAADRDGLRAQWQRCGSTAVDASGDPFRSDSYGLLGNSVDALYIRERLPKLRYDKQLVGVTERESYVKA
API: label(entry) gives rule met if the entry's IC50 is strictly smaller than 7 µM; on equality or larger values it gives rule not met.

compound	tgt	answerLabel
CN(Cc1ccc([N+](=O)[O-])cc1)C(=O)N1C(=O)C[C@@H]1Cc1nc2ccccc2s1	HCMV NO protease (Human cytomegalovirus, UniProt P16753)	rule met
COC(=O)c1ccc(CN(C)C(=O)N2C(=O)C[C@@H]2Cc2ccccc2)cc1	HCMV NO protease (Human cytomegalovirus, UniProt P16753)	rule met
CCC(NC(=O)N1C(=O)C[C@@H]1Cc1ccccc1)c1ccncc1 (stereo partly drawn) [Entry 109]	HCMV NO protease (Human cytomegalovirus, UniProt P16753)	rule met
CN(Cc1ccc([N+](=O)[O-])cc1)C(=O)N1C(=O)C[C@@H]1Cc1nccs1	HCMV NO protease (Human cytomegalovirus, UniProt P16753)	rule met
CN(Cc1ccc(C(F)(F)F)cc1)C(=O)N1C(=O)CC1Cc1nnn(C)n1 (stereo in doubt)	HCMV NO protease (Human cytomegalovirus, UniProt P16753)	rule met
CN(CCc1ccccc1)C(=O)N1C(=O)C[C@@H]1Cc1ccccc1	HCMV NO protease (Human cytomegalovirus, UniProt P16753)	rule not met
O=C1C[C@H](Cc2ccccc2)N1C(=O)N1CCCc2ccccc21	HCMV NO protease (Human cytomegalovirus, UniProt P16753)	rule not met
O=C1C[C@H](Cc2ccc(I)cc2)N1C(=O)NCc1ccncc1	HCMV NO protease (Human cytomegalovirus, UniProt P16753)	rule not met
CCC(NC(=O)N1C(=O)[C@@H](C)[C@@H]1Cc1ccccc1)c1ccncc1 (single isomer, unassigned) [Entry 206]	HCMV NO protease (Human cytomegalovirus, UniProt P16753)	rule met
COc1ccc(NC(=O)N2C(=O)C[C@@H]2Cc2ccccc2)cc1	HCMV NO protease (Human cytomegalovirus, UniProt P16753)	rule met
CN(Cc1ccc([N+](=O)[O-])cc1)C(=O)N1C(=O)C[C@@H]1Cc1ccccc1	HCMV NO protease (Human cytomegalovirus, UniProt P16753)	rule met
O=C1C[C@H](Cc2ccccc2)N1C(=O)Nc1ccncc1	HCMV NO protease (Human cytomegalovirus, UniProt P16753)	rule met
CN(Cc1ccc(C(F)(F)F)cc1)C(=O)N1C(=O)C[C@@H]1Cc1nccs1 [Entry 218]	HCMV NO protease (Human cytomegalovirus, UniProt P16753)	rule met
O=C1C[C@H](Cc2ccccc2)N1C(=O)NCc1ccncc1	HCMV NO protease (Human cytomegalovirus, UniProt P16753)	rule not met
O=C1C[C@H](Cc2ccccc2)N1C(=O)N1CCCC1	HCMV NO protease (Human cytomegalovirus, UniProt P16753)	rule not met
CN(CC(=O)OCc1ccccc1)C(=O)N1C(=O)C[C@@H]1Cc1ccccc1	HCMV NO protease (Human cytomegalovirus, UniProt P16753)	rule not met
C[C@H](c1ccccc1)N(C)C(=O)N1C(=O)C[C@@H]1Cc1ccccc1	HCMV NO protease (Human cytomegalovirus, UniProt P16753)	rule not met
CC(NC(=O)N1C(=O)CC1Cc1ccccc1)c1ccccc1 (stereo not drawn)	HCMV NO protease (Human cytomegalovirus, UniProt P16753)	rule not met
CC[C@@H](C)[C@H]1CC(=O)N1C(=O)N[C@H](CC)c1ccccc1	HCMV NO protease (Human cytomegalovirus, UniProt P16753)	rule met
COc1c(C)cc(NC(=O)N2C(=O)C[C@@H]2Cc2ccccc2)cc1C	HCMV NO protease (Human cytomegalovirus, UniProt P16753)	rule met
C[C@@H]1C(=O)N(C(=O)NCc2ccccc2)[C@H]1Cc1ccccc1	HCMV NO protease (Human cytomegalovirus, UniProt P16753)	rule met
O=C1C[C@H](Cc2ccccc2)N1C(=O)NCc1ccc2c(c1)OCO2	HCMV NO protease (Human cytomegalovirus, UniProt P16753)	rule met
CC[C@@H](NC(=O)N1C(=O)C[C@@H]1[C@@H](C)CC)c1ccccc1	HCMV NO protease (Human cytomegalovirus, UniProt P16753)	rule not met
CCC(NC(=O)N1C(=O)[C@@H](C)[C@@H]1Cc1ccccc1)c1ccncc1 (single isomer, unassigned) [Entry 205]	HCMV NO protease (Human cytomegalovirus, UniProt P16753)	rule not met
CN(Cc1ccc(C(F)(F)F)cc1)C(=O)N1C(=O)C[C@@H]1Cc1nc2ccccc2s1	HCMV NO protease (Human cytomegalovirus, UniProt P16753)	rule met
CN(C)C(=O)N1C(=O)C[C@@H]1Cc1ccccc1	HCMV NO protease (Human cytomegalovirus, UniProt P16753)	rule not met
CC[C@H]1CC(=O)N1C(=O)N[C@H](CC)c1ccccc1	HCMV NO protease (Human cytomegalovirus, UniProt P16753)	rule not met
CN(Cc1ccc(C(F)(F)F)cc1)C(=O)N1C(=O)C[C@@H]1Cc1nccs1 [Entry 231]	HCMV NO protease (Human cytomegalovirus, UniProt P16753)	rule met
O=C1C[C@H](Cc2ccccc2)N1C(=O)Nc1ccc(F)cc1	HCMV NO protease (Human cytomegalovirus, UniProt P16753)	rule met
CCCC(NC(=O)N1C(=O)CC1Cc1ccccc1)c1ccccc1 (stereo not drawn)	HCMV NO protease (Human cytomegalovirus, UniProt P16753)	rule met
O=C1C[C@H](Cc2ccccc2)N1C(=O)N1CCOCC1	HCMV NO protease (Human cytomegalovirus, UniProt P16753)	rule not met
C[C@@H]1C(=O)N(C(=O)Nc2ccccc2)[C@H]1Cc1ccccc1	HCMV NO protease (Human cytomegalovirus, UniProt P16753)	rule met
CN(Cc1ccc(C#N)cc1)C(=O)N1C(=O)C[C@@H]1Cc1ccccc1	HCMV NO protease (Human cytomegalovirus, UniProt P16753)	rule met
